B1: ZNF232 (parent)
chain: FPKSEQVYLHFLSVVTEDGPEPKD

variants of: B1; assay: protein stability index of a GFP-peptide fusion (GPS, HEK-293T) (PSI 1-6); higher = more stable; conditions: c terminus: a fixed tail appended;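 further: lentivirally expressed fusions sorted by FACS into six bins by GFP to DsRed ratio, PSI derived from sequencing read proportions per bin multiplied by bin number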
VALUE KIND: protein stability index

>>> df
    variant_string               value_kind   val
 0             F1W  protein stability index     3
 1             K3F  protein stability index  2.61
 2            T16E  protein stability index  2.38
 3            G19F  protein stability index  1.54
 4            E21R  protein stability index  1.79
 5             P2C  protein stability index  2.75
 6            E17T  protein stability index  2.08
 7            F11G  protein stability index  3.61
 8             K3C  protein stability index  2.51
 9            V15N  protein stability index  2.36
10            T16H  protein stability index  2.68
11            F11M  protein stability index  2.06
12             F1D  protein stability index  4.86
13            P22W  protein stability index  1.83
14            K23W  protein stability index   1.7
15             S4D  protein stability index  2.24
16            G19W  protein stability index  1.47
17            E17K  protein stability index     2
18            H10A  protein stability index  3.29
19            K23T  protein stability index  1.69
20             L9I  protein stability index  1.83
21            P22T  protein stability index     2
